- Experiment Notes: melting temperature; fluorescence melt of hairpins on a sequencing array, two-state fit, raised by 9.35 °C to match UV melts
- Test Settings: sodium 0.088 M
# thresholds on Tm define classes: group A (below 50 °C), group B (50 °C to below 60 °C), group C (60 °C or more)

These recorded examples may help you get a feel for the data.
GCCGGCTCGAAAGAGGGC (((..(((....)))))); group A
GCGGTTCGCCGC ((((....)))); group C

Request: Category of GGTGGTTCGAAAGAAACC (((..(((....)))))) , please.
Response: group A

Request: Can you handle GCCCACGGAAACACGGGC ((((..(....)..)))) next?
Response: group A

All values here come from the array DNA melting data of Ke et al. (doi:10.1101/2024.01.08.574731).
